The reported numbers originate from patent US9079880B2.

target: ROCKII (1-543) (Homo sapiens (Human), UniProt O75116); assay: Luciferin-Luciferase Assay (PKLight ATP detection); assay type: biochemical; conditions: 750 nM ATP, 500 nM peptide, 7.5 nM kinase
Sequence (O75116 1-543): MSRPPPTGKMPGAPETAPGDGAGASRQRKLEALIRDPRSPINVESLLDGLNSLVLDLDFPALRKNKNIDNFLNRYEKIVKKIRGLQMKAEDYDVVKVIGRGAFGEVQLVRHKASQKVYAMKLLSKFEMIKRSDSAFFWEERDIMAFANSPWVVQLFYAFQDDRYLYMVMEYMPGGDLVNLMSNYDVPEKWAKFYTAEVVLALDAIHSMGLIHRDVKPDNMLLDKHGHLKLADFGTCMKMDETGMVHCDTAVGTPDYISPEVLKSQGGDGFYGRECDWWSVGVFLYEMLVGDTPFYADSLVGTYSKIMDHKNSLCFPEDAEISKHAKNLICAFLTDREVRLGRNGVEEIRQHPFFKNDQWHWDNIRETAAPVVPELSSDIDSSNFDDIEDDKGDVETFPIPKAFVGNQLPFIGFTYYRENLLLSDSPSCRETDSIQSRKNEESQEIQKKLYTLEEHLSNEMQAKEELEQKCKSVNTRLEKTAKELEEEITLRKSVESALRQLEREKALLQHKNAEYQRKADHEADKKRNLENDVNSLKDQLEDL
quantity kind: IC50 (nM)

compound	unit descriptor	observed result
CN1CCc2nc(NC(=O)c3cccc([C@H]4CCCN4C(=O)c4cn5cc(C#N)ccc5n4)c3)sc2C1	nM	25.5
NC(=O)c1ccc2nc(C(=O)N3CCC[C@@H]3c3cccc(C(=O)Nc4nc5c(s4)C[C@@H](N4CCOCC4)CC5)c3)cn2c1	nM	2.3
CN1CCc2nc(NC(=O)c3cccc(C4CCCN4C(=O)Nc4ccc(C(N)=O)cc4)c3)sc2C1 (centres unmarked)	nM	5.4
COc1ccc(C(=O)N[C@H](C)c2cccc(C(=O)Nc3ccc4c(c3)CN(C)CC4)c2)cc1C	nM	10.5
CC[C@@H](NC(=O)Nc1ccc(C#N)cc1)c1cccc(C(=O)Nc2nc3c(s2)CN(C)CC3)c1	nM	23.1
N#Cc1ccc(NC(=O)COc2cccc(C(=O)Nc3nc4c(s3)C[C@@H](N3CCOCC3)CC4)c2)cc1	nM	3.4
CN1CCc2nc(NC(=O)c3cccc([C@H]4CCCN4C(=O)c4ccc(-c5ccncc5)cc4)c3)sc2C1	nM	1.7
CN1CCc2nc(NC(=O)c3cccc([C@H](NC(=O)Nc4cccc(C#N)c4)C4CC4)c3)sc2C1	nM	9.7
N#Cc1cccc(NC(=O)N2CCCC2c2cccc(C(=O)Nc3ccc4c(c3)CNCC4)c2)c1 (centres unmarked)	nM	17.8
CN1CCc2ccc(NC(=O)c3cccc(C4CCCN4C(=O)Nc4cccc(C#N)c4)c3)cc2C1 (centres unmarked)	nM	22.4
COc1ccc(C(=O)N[C@H](C)c2cccc(C(=O)Nc3ccc4c(c3)CN(C)CC4)c2)cc1Cl	nM	14
O=C(Nc1nc2c(s1)C[C@@H](N1CCOCC1)CC2)c1cccc([C@H]2CCCN2C(=O)c2ccc3cc(O)ccc3c2)c1	nM	2.5
COc1ccc(C(=O)N[C@H](C)c2cccc(C(=O)Nc3nc4c(s3)CN(C)CC4)c2)cc1Cl	nM	3.9
CN(C)[C@H]1CCc2nc(NC(=O)c3cccc([C@H]4CCCN4C(=O)c4nnn(-c5nonc5N)c4-c4ccccc4)c3)sc2C1	nM	2.2
